Recorded values, source the NIST ThermoML archive (doi:10.1016/j.fluid.2014.01.019).

# CONDITIONS: 308.15 K; 101.33 kPa; Liquid; Vibrating tube method
ASSAY_READOUT: mass density (kg/m3)
Numbers only, in kg/m3.

| COMPOUND | UNIT_SYMBOL | REPORTED_MEASUREMENT |
| --- | --- | --- |
| Cc1cccc([N+](=O)[O-])c1 [3-nitrotoluene] | kg/m3 | 1142.67 |

List the reported mass density of each compound below.
1. Cc1ccccc1[N+](=O)[O-] [2-nitrotoluene]
2. Cc1cccc(Cl)c1 [3-chlorotoluene]
3. OCc1ccccc1 [benzenemethanol]
4. Cc1ccccc1Cl [2-chlorotoluene]
5. Cc1ccc(Cl)cc1 [4-chlorotoluene]

Reply:
1: 1149.78; 2: 1058.29; 3: 1033.75; 4: 1068.21; 5: 1054.27
